- measured on: purified interference factor(s) from serum of Donor A
- test name: SPR, interference factor on CM5 chip
readout label: binding as % of Reference Sequence (=100%)

Guide cases for binding as % of Reference Sequence (=100%), answers given:
Nanobody or Nanobody construct of SEQ ID NO: 43 (VHH) DVQLVESGGGLVQPGGSLRLSCAASGFILDYYAIGWFRQAPGKEREGVLCIDASDDITYYADSVKGRFTISRDNSKNTVYLQMNSLRPEDTAVYYCATPIGLSSSCLLEYDYDYWGQGTLVTVSSGGGGSGGGSEVQLLESGGGLVQPGGSLRLSCAASGFTFRSFGMSWVRQAPGKGPEWVSSISGSGSDTLYADSVKGRFTISRDNSKNTLYLQMNSLRPEDTAVYYCTIGGSLSRSSQGTLVTVSSA :: 3
Nanobody or Nanobody construct of SEQ ID NO: 80 (VHH) VHH: EVQLVESGGGLVQPGGSLRLSCAASRSIGRLDRMGWYRHRPGEPRELVATITGGSSINYGDSVKGRFTISIDNSKNTVYLQMNSLRPEDTAVYYCNFNKYVTSRDTWGQGTLVQVGG :: 65
Nanobody or Nanobody construct of SEQ ID NO: 38 (VHH) EVQLVESGGGLVQPGGSLRLSCAASGFTFSSYAMSWVRQAPGKGLEWVSGIKSSGDSTRYAGSVKGRFTISRDNAKNTLYLQMNSLRPEDTAVYYCAKSRVSRTGLYTYDNRGQGTLVTVSSGGGGSGGGGSGGGGSGGGGSEVQLVESGGGLVQPGGSLRLSCAASGRTFNNYAMGWFRQAPGKEREFVAAITRSGVRSGVSAIYGDSVKDRFTISRDNAKNTLYLQMNSLRPEDTAVYYCAASAIGSGALRRFEYDYSGQGTLVTVSSA :: 9

1. Nanobody or Nanobody construct of SEQ ID NO: 85 (VHH) VHH: EVQLVESGGGSVQPGGSLRLSCAASRSIGRLDRMGWYRHRPGEPRELVATITGGSSINYGDSVKGRFTISIDNSKNTVYLQMNSLRPEDTAVYYCNFNKYVTSRDTWGQGTLVQVGG
2. Nanobody or Nanobody construct of SEQ ID NO: 49 (VHH) VHH: EVQLLESGGGLVQPGGSLRLSCAASGLPFSTKSMGWFRQAPGKGREFVSRISPGGTSRYYGDFVKGRFTISRDNSKNTLYLQMNSLRAEDTAVYYCASGERSTYIGSNYYRTNEYDYWGQGTLVTVSS
3. Nanobody or Nanobody construct of SEQ ID NO: 84 (VHH) VHH: EVQLVESGGGLVQPGGSLRLSCAASRSIGRLDRMGWYRHRPGEPRELVATITGGSSINYGDSVKGRFTISIDNSKNTVYLQMNSLRPEDTAVYYCNFNKYVTSRDTWGQGTLVTVGS
Returns the items ordered by binding as % of Reference Sequence (=100%), from maximum to minimum. Could you list the labels in the order requested? 3, 1, 2
(3: 84%, 1: 46%, 2: 0%)
